target: LMPTP-A (Low Molecular Weight Protein Tyrosine Phosphatase-A) enzyme (Homo sapiens (Human), UniProt P24666); assay: LMPTP primary screening / LMPTP (OMFP) enzyme inhibition assay, fluorescence intensity; type: biochemical; settings: LMPTP-A, OMFP substrate, method of Example 2; read-out: IC50
Sequence (P24666 whole entry): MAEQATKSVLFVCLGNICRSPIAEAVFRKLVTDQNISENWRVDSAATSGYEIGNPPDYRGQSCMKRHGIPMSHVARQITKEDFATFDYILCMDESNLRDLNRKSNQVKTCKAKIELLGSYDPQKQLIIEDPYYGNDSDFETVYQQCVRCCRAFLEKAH
pIC50: −log10 of the molar value.
Reported Metric: pIC50

# count of solved cases: 3
GET /values?readout=pIC50&item= `CCN1CCN(Cc2ccc(Nc3cc(-c4ccc(OC)cc4)nc4c3CCCC4)cc2)CC1`
5.30 to 6.10

GET /values?readout=pIC50&item= `CN(C)Cc1cccc(Nc2cc(-c3cc(C(F)(F)F)cc(C(F)(F)F)c3)nc3ccccc23)c1`
< 5.30

GET /values?readout=pIC50&item= `CC(=O)OCc1cccc(-c2cc(NCCCN3CCCCC3)c3ccccc3n2)c1`
5.30 to 6.10

The record that follows has no pIC50 shown yet.
GET /values?readout=pIC50&item= `COc1ccc(-c2cc(Nc3ccc4ccccc4n3)c3ccccc3n2)cc1`
5.30 to 6.10

---

assay: rodent pharmacokinetics in male C57BL/6 mice (IV, PO, IP); format: in vivo, mouse; conditions: male, C57BL/6, mouse, in vivo, iv, […]
Reported Metric: half-life (min)
# unit: min | format: bare number

GET /values?readout=half-life&item= COc1ccc(-c2cc(NCCCN3CCCCC3)c3ccccc3n2)cc1 [Compound D1]
2380

---

experiment: rodent pharmacokinetics in male C57BL/6 mice (IV, PO, IP); assay type: in vivo, mouse; conditions: mouse, in vivo; male C57BL/6 mice, PO, 29.6 mg/kg
Reported Metric: Cmax (ng/mL)
# unit: ng/mL | format: bare number

GET /values?readout=Cmax&item= COc1ccc(-c2cc(NCCCN3CCCCC3)c3ccccc3n2)cc1 [Compound D1]
3210

---

target: LMPTP-A (Low Molecular Weight Protein Tyrosine Phosphatase-A) enzyme (Homo sapiens (Human), UniProt P24666); assay: LMPTP primary screening / LMPTP (OMFP) enzyme inhibition assay, fluorescence intensity; type: biochemical; conditions: LMPTP-A, OMFP substrate, method of Example 2; read-out: IC50
Reported Metric: IC50

# count of solved cases: 3
GET /values?readout=IC50&item= CN(C)c1cc(-c2ccccc2C(F)(F)F)nc2ccccc12 [Compound D2]
801 to 5000 nM

GET /values?readout=IC50&item= Fc1cc(Cl)ccc1-c1cc(Nc2cccc(CN3CCCC3)c2)c2ccccc2n1 [Compound I10]
801 to 5000 nM

GET /values?readout=IC50&item= Cn1ccc2cc(-c3cc(NCCCN4CCCCC4)c4ccccc4n3)ccc21 [Compound I109]
200 to 800 nM

***
GET /values?readout=IC50&item= NC(=O)c1ccc(-c2cc(NCc3ccc(CN4CCOCC4)cc3)c3ccccc3n2)cc1 [Compound I212]
> 5000 nM

GET /values?readout=IC50&item= CSc1ccc(-c2cc(NCCCN3CCCCC3)c3ccccc3n2)c(C(F)(F)F)c1 [Compound I114]
801 to 5000 nM

GET /values?readout=IC50&item= CSc1cncc(-c2cc(NCCCN3CCCCC3)c3ccccc3n2)c1 [Compound I92]
801 to 5000 nM

GET /values?readout=IC50&item= CN(C)CCNC(=O)c1ccc(-c2cc(NCCCN3CCCCC3)c3ccccc3n2)cc1 [Compound I66]
200 to 800 nM

GET /values?readout=IC50&item= c1coc(-c2cc(NCCCN3CCCCC3)c3ccccc3n2)c1 [Compound G12]
801 to 5000 nM

GET /values?readout=IC50&item= c1ccc2c(NCCCC3CCCNC3)cc(-c3ccoc3)nc2c1 (stereo not drawn) [Compound I177]
801 to 5000 nM
